# Assayed Target: GSK3α (GST-full length GSK3α) (Homo sapiens (Human), UniProt P49840)
# Sequence (P49840 whole entry): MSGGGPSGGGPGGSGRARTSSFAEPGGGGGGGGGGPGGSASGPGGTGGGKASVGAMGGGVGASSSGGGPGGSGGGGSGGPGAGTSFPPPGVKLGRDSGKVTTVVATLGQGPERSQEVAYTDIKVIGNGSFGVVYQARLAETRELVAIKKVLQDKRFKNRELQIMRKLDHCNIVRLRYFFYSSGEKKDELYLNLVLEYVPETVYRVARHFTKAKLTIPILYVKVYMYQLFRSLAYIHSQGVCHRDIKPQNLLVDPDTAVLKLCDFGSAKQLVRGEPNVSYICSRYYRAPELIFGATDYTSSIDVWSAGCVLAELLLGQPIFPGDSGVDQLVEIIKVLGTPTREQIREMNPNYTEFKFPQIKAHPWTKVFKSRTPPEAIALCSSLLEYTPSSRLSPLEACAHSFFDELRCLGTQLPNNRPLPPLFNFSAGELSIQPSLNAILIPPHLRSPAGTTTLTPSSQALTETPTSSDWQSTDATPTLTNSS
# Test Description: GSK3α TR-FRET kinase assay
# Type: biochemical
# Measurement Context: read-out: GSK3-A (TR-FRET 1 mM ATP); GMean; IC50; 1 mM ATP; geometric mean
Readout Kind: IC50

> print(dat)
                                   compound  readout.kind  endpoint.result
1  CCC1(c2cccc(-c3cc(C)nnc3C)c2)C2=C(CC(C)(C)NC2=O)Nc2n[nH]c(C(F)(F)F)c21 (stereo not shown) [Compound 949174]          IC50   100 to 1000 nM

Enquiry: // IC50 lookup, key: CC[C@@]1(c2cccc(-c3ccnc4c3CCC4)c2)C2=C(CC(C)(C)NC2=O)Nc2n[nH]cc21 [Compound 948313]
Return: 100 to 1000 nM

Enquiry: // returns reported IC50 for input CCC1(c2cccc(-c3ccnc(C)c3)c2)C2=C(CC(C)(C)NC2=O)Nc2n[nH]c(C(F)F)c21 (stereo not shown) [Compound 949169]
Return: 100 to 1000 nM

Enquiry: I'd like to know its IC50. The compound in question is CCC1(c2cccc(-c3ccnn3C)c2)C2=C(CC(C)(C)CC2=O)Nc2n[nH]cc21 (stereo not shown) [Compound 911992]
Return: ≤ 100 nM

----------
Quick list: pIC50 per entry.
# Assayed Target: GSK3α (GST-full length GSK3α) (Homo sapiens (Human), UniProt P49840)
# Test Description: GSK3α TR-FRET kinase assay
# Type: biochemical
# Measurement Context: 1 nM GSK3α, 4 μM ATP, 30 minute preincubation, Table 16; read-out: GSK3-A TR-FRET BIOCHEMICAL (TR-FRET); IC50
pIC50: −log10 of the molar value.

> print(dat)
                                   compound  readout.kind  endpoint.result
1  CC[C@]1(c2ccccc2)C2=C(Nc3n[nH]cc31)[C@H](C)C[C@H](C)C2=O [Compound 909218]         pIC50           < 5.30
2  CCC1(c2cccc(-c3ccnc(OC)c3)c2)C2=C(CC(C)(C)CC2=O)Nc2n[nH]cc21 (stereo not shown) [Compound 911989]         pIC50     5.30 to 6.00
3  CCC1(c2cccc(N(C)C(=O)c3cnn(C)c3)c2)C2=C(CC(C)(C)CC2=O)Nc2n[nH]cc21 (stereo not shown) [Compound 912068]         pIC50           ≥ 7.00
4  CO[C@H]1C[C@]2(C1)C1=C(CC(C)(C)CC1=O)Nc1n[nH]cc12 [Compound 901473]         pIC50           < 5.30
5  CC1(C)CC(=O)C2=C(C1)Nc1n[nH]cc1C2(C)C [Compound 786065]         pIC50     5.30 to 6.00

Enquiry: For the compound shown here, CCc1cc(N(C)c2cccc(C3(CC)C4=C(CC(C)(C)CC4=O)Nc4n[nH]cc43)c2)ccn1 (stereo not shown) [Compound 917147] , give the reported pIC50.
Return: ≥ 7.00

Enquiry: Data request, read-out pIC50, for CC[C@]1(c2cccc(-c3cnn(C4CCCCC4)c3)c2)C2=C(CC(C)(C)NC2=O)Nc2n[nH]cc21 [Compound 951707]
Return: 6.00 to 7.00
